test system: KM12 colon; experiment: NCI tumour cell line growth inhibition, 48 h
endpoint label: TGI

See these solved cases before continuing.
>  <molecule>
CCOC(=O)C(C(N)=O)c1nc2cc([N+](=O)[O-])ccc2nc1/C=C(\O)c1ccc(C)cc1 (centres undefined)

>  <system>
KM12 colon

>  <TGI>
> 100 µM

$$$$
>  <molecule>
CC(C)n1c2c(c3ccccc3c1=O)C(=O)c1ccccc1-2

>  <system>
KM12 colon

>  <TGI>
> 100 µM

$$$$
>  <molecule>
CC(=O)O/N=C1\C=Cc2c(no[n+]2[O-])C1=O

>  <system>
KM12 colon

>  <TGI>
33.7 µM

$$$$
>  <molecule>
COC1=C(C(=O)OC(C)(C)C)C23CCCCC2(C(C(=O)OC(C)(C)C)=C(OC)C3C(=O)OC(C)(C)C)C1C(=O)OC(C)(C)C (centres undefined)

>  <system>
KM12 colon

>  <TGI>
> 100 µM

$$$$
>  <molecule>
CC1=NN(C(=O)CC(=O)Nc2ccccc2)C(=O)C1N=Nc1ccc(S(N)(=O)=O)cc1 (centres undefined)

>  <system>
KM12 colon

>  <TGI>
> 100 µM

$$$$

Data request: # TGI lookup, item CC12CCC3=C(CSC4=C3CSc3ccccc34)C1=CCCC2=O (centres undefined)
Data returned: > 100 µM

Data request: Next: CC(=O)OCC1OC(n2c(-c3ccc(N)cc3)cc(-c3ccco3)c(C#N)c2=O)C(OC(C)=O)C(OC(C)=O)C1OC(C)=O (centres undefined)
Data returned: > 50 µM

Data request: Next: Cn1c(=O)c(C2c3ccccc3Oc3c2c(=O)n(C)c2ccccc32)c(O)c2ccccc21 (centres undefined)
Data returned: > 100 µM

Data request: Next: CC(CC(C)[C@H]1CCC2[C@H]3C(CC[C@@]21C)[C@@]1(C)CCC(O)C[C@H]1C[C@@H]3O)C(=O)O (some centres undefined)
Data returned: > 100 µM

---

test system: SR leukemia; assay: NCI tumour cell line growth inhibition, 48 h
This section presents compounds with their documented TGI values.

See these solved cases before continuing.
>  <compound>
CC1(C)OC2C(CO)OC(/N=C(\NC#N)Oc3ccccc3)C2O1 (centres undefined)

>  <TGI>
> 100 µM

$$$$
>  <compound>
O=C(NCCc1ccccc1)C(c1csc2ccccc12)N(C(=O)CCl)c1ccc(-c2cnco2)cc1 (centres undefined)

>  <TGI>
0.107 µM

$$$$

Data request: # TGI lookup, item COC(=O)CC[C@@H](NC(=O)C(C)NC(=O)COC1C(O)C(COC(=O)CCCCCCCCCCNC(=O)c2ccc([N+](=O)[O-])c3[nH]c4cc(Br)ccc4c(=O)c23)OC(OCc2ccccc2)C1NC(C)=O)C(N)=O (some centres undefined)
Data returned: > 100 µM

Data request: Next: COC(=O)c1nc(N)[nH]c(=O)c1-c1ccc(Cl)cc1
Data returned: > 86.6 µM

Data request: Next: CN(C)CCNc1ccccn1
Data returned: > 100 µM

Data request: Next: c1ccc2c3c(c(N4CCNCC4)nc2c1)CCCC3
Data returned: > 100 µM

Data request: Next: N#CC1=C(N)NC(=S)NC1c1ccc(-c2ccc(-c3nc4ccccc4s3)cc2)o1 (centres undefined)
Data returned: 25.7 µM

Data request: Next: CS(=O)(=O)c1ccc(C2=C(c3ccccc3)C(=O)OC2)cc1
Data returned: > 100 µM

Data request: Next: C/C(=N\NC(=S)N/N=C(\C)c1ccccn1)c1ccccn1
Data returned: > 100 µM

Data request: Next: COc1cc(Oc2cnc3cc(N)cc(N)c3n2)cc(OC)c1OC
Data returned: 37.2 µM

---

This section presents compounds with their documented TGI values.
system: MDA-N; assay: NCI tumour cell line growth inhibition, 48 h
# output: bare number, implied unit µM

Data request: # TGI lookup, item COc1ccc(NC(=O)c2cc(NC(=O)/C=C/c3ccccc3)c(OC)c(OC)c2)cc1
Data returned: 16.5

Data request: Next: CC(C)=CCC[C@@H](C)c1c(O)c(O)c(C)c2nc3ccccc3nc12
Data returned: 15.9

---

This section presents compounds with their documented TGI values.
system: MOLT-4 leukemia; experiment: NCI tumour cell line growth inhibition, 48 h
# output: bare number, implied unit µM

See these solved cases before continuing.
>  <compound>
CCCCOP(=O)(OCCCC)C(NS(=O)(=O)c1ccccc1)(C(=O)OCC)C(F)(F)F (stereo not drawn)

>  <quantity unit>
µM

>  <experimental result>
58.1

$$$$
>  <compound>
COc1cc2c3c(c1OC)C1(C=CC(=O)C=C1)CC3N(C(=O)OC(C)(C)C(Cl)(Cl)Cl)CC2 (stereo not drawn)

>  <quantity unit>
µM

>  <experimental result>
17.9

$$$$
>  <compound>
O=C(N/C(=C\c1cc(Cl)ccc1Cl)c1nc2ccccc2[nH]1)c1ccccc1

>  <quantity unit>
µM

>  <experimental result>
63.8

$$$$

Data request: Field: TGI (MOLT-4 leukemia). Entry: CC(=O)NC1=NC(=O)/C(=C/c2ccc(Cl)cc2Cl)N1C
Data returned: 81.4

---

tested on: COLO 205 colon; test: NCI tumour cell line growth inhibition, 48 h
endpoint label: TGI (µM)
# output: bare number, implied unit µM

>  <compound>
O=C(O)/C=C/C(=O)Nc1cccc2c1-c1ccccc1C2=O

>  <quantity unit>
µM

>  <TGI>
36.1

$$$$

Data request: # TGI lookup, item COc1cc(C2C3=C(COC3=O)N(CCO)c3cc4c(cc32)OCCO4)cc(OC)c1O (stereo not given)
Data returned: 12

---

system: RPMI-8226 leukemia; test: NCI tumour cell line growth inhibition, 48 h
Where a SMILES comes first, the peptide text is derived from it. The star is where a group is joined. Boc = CC(C)(C)OC(=O)*; OBn = c1ccc(CO*)cc1; Bn = c1ccc(C*)cc1
endpoint label: TGI

>  <compound>
CC(C)CC(NC(=O)C(CCC(=O)OCc1ccccc1)NC(=O)OC(C)(C)C)C(=O)NC(COCc1ccccc1)C(=O)NC(Cc1ccccc1)C(=O)O (centres undefined) (Boc-E(OBn)LS(Bn)F-OH; configuration not given here)

>  <experimental result>
> 100 µM

$$$$
>  <compound>
O=C(/C=C/c1ccccc1O)CC(=O)/C=C/c1ccccc1O

>  <experimental result>
15.5 µM

$$$$
>  <compound>
O=c1[nH]/c(=C/c2cccs2)c(=O)[nH]/c1=C/c1ccc(OCc2ccccc2)cn1

>  <experimental result>
> 43.2 µM

$$$$

Data request: # TGI lookup, item Cc1cc(C)c2nc(Nc3nc(C)c(C)c(=O)[nH]3)nc(C)c2c1
Data returned: 6.21 µM

Data request: Next: OCCOCn1nc(-c2ccccc2)nc1-c1cnccn1
Data returned: > 100 µM

Data request: Next: COc1cc(C(C)(C)C)c(OC(=O)/C=C/C(=O)O/C=C/[N+](=O)[O-])c(C(C)(C)C)c1
Data returned: > 100 µM

Data request: Next: CCCCCCCC(=O)SCC/C=C/[C@@H]1CC(=O)NCc2cccc(n2)CN(Cc2ccc(Cl)cc2)CC(=O)N[C@@H](C(C)C)C(=O)O1
Data returned: > 100 µM

Data request: Next: O=C(O)/C=C/C(=O)Nc1cccc2c1-c1ccccc1C2=O
Data returned: 62.6 µM

Data request: Next: COc1cc(C=C2C(=O)OC(C)(C)OC2=O)cc(OC)c1OC
Data returned: > 100 µM

---

test system: NCI-H460 lung; experiment: NCI tumour cell line growth inhibition, 48 h
endpoint label: TGI

See these solved cases before continuing.
>  <compound>
O=C(c1ccc(Cl)cc1)N(C(=S)N1CCN(c2ccccc2)CC1)C1CCCCC1

>  <system>
NCI-H460 lung

>  <endpoint label>
TGI

>  <experimental result>
> 100 µM

$$$$
>  <compound>
COc1ccc2c(c1)C(CCN)C(=O)N2 (stereo not given)

>  <system>
NCI-H460 lung

>  <endpoint label>
TGI

>  <experimental result>
> 100 µM

$$$$
>  <compound>
COC1=C(C(=O)OC(C)(C)C)C23CCCCC2(C(C(=O)OC(C)(C)C)=C(OC)C3C(=O)OC(C)(C)C)C1C(=O)OC(C)(C)C (stereo not given)

>  <system>
NCI-H460 lung

>  <endpoint label>
TGI

>  <experimental result>
> 100 µM

$$$$
>  <compound>
O=C1/C(=C/c2ccc(F)cc2)CN(Cc2cn(CCNc3ccnc4cc(Cl)ccc34)nn2)C/C1=C\c1ccc(F)cc1

>  <system>
NCI-H460 lung

>  <endpoint label>
TGI

>  <experimental result>
2.57 µM

$$$$

Data request: # TGI lookup, item COc1cccc(-n2cnc3c(N/N=C/c4ccncc4)ncnc32)c1
Data returned: > 25 µM

Data request: Next: CCCCC(=O)Nc1ccc2cc(C(=O)OC)c(=O)[nH]c2n1
Data returned: > 100 µM

Data request: Next: O=c1[nH]c(=O)n(COCCO)cc1-c1ccccc1
Data returned: > 100 µM

Data request: Next: O=C(CCCCCn1c2ccccc2c2c3c(c4c5ccccc5[nH]c4c21)C(=O)N(O)C3=O)N1CCOCC1
Data returned: 4.69 µM

Data request: Next: Cc1cc(C)c2nc(Nc3nc(C)c(C)c(=O)[nH]3)nc(C)c2c1
Data returned: 11.1 µM

Data request: Next: C=C1CN(C(=O)c2cc3cc(OC)c(OC)c(OC)c3[nH]2)c2cc([N+](=O)[O-])ccc21
Data returned: > 100 µM
